- experimental.setup: buffer; pH 7.4; 200.0 µM
# reported solubility kinetic; entries follow
reported.metric: solubility kinetic (µg/mL)

INSERT INTO measurements (compound, reported_metric, readout_qualifier, quantitative_readout) VALUES
  ('Cc1nnc(NN2CCOCC2)[nH]c1=O', 'solubility kinetic', '>', 31.7),
  ('CN1C(=O)NC(c2cccc(F)c2)C2=C1CC(C)(C)CC2=O (configuration not stated)', 'solubility kinetic', '>', 45.4),
  ('CCC1(c2ccc(F)cc2)NC(=O)N(CC(=O)NC2CCCCCC2)C1=O (configuration not stated)', 'solubility kinetic', '=', 10.4),
  ('CSCc1cc(N(C)c2ccccc2)nc(-c2ccccn2)n1', 'solubility kinetic', '=', 42.8),
  ('COc1ccccc1-c1ccc(/C=N/O)o1', 'solubility kinetic', '=', 3.9),
  ('CC(=O)n1cc(C=C2C(=O)NC(=O)NC2=O)c2ccccc21', 'solubility kinetic', '=', 27.5),
  ('NC(=O)c1oc2ccccc2c1NC(=O)Cc1ccccc1', 'solubility kinetic', '=', 43.7),
  ('CCOc1ccc(C2(C)NC(=O)N(CCN(C)C)C2=O)cc1 (configuration not stated)', 'solubility kinetic', '=', 38.1),
  ('O=C1c2cccnc2C(=O)N1c1cccc([N+](=O)[O-])c1', 'solubility kinetic', '>', 40.4),
  ('NS(=O)(=O)c1ccc(NC(=S)N2CCc3ccccc32)cc1', 'solubility kinetic', '=', 2.1),
  ('O=c1oc2ccccc2n1Cc1ccccc1', 'solubility kinetic', '=', 8.6),
  ('Cc1nccn1CCC(=O)Nc1ccc(Cl)cc1', 'solubility kinetic', '>', 39.6);

###

Measured log10 solubility kinetic by item
- experimental.setup: buffer; pH 7.4; 200.0 µM
reported.metric: log10 solubility kinetic (log10 of the value in µg/mL)

INSERT INTO assay_data (molecule, quantitative_readout) VALUES
  ('Cc1cc(C=C2C(=O)NC(=O)NC2=O)c(C)n1-c1cccnc1', 1.03),
  ('COc1cccc(C(=O)Nc2ccc(NC(=O)C3CCCCC3)nc2)c1', 0.30),
  ('CNC(=O)O/N=C(\N)Cc1csc2ccc(Cl)cc12', 1.64),
  ('O=C(NCC(O)COc1ccc([N+](=O)[O-])cc1)c1ccccc1 (centres undefined)', 1.39),
  ('CC#CC[N+](C)(CC#CC)CC(=O)c1ccccc1.[Br-]', 1.48),
  ('Cc1ccc(C(=O)NCC(c2ccc(F)cc2)N2CCOCC2)cc1 (centres undefined)', 1.65),
  ('CC1CCCCN1C(=O)c1ccc(Br)o1 (centres undefined)', 1.58),
  ('COC(=O)c1sccc1NC(=O)c1ccccc1Br', 0.36),
  ('Cc1ccccc1-c1noc(CCC(=O)NCc2ccco2)n1', 1.62),
  ('Cc1ccc2c(CC(=O)N3CCN(c4ccccc4)CC3)coc2c1', 0.91),
  ('Cc1ccc(OC(C)C(=O)Nc2ccncc2)cc1 (centres undefined)', 1.50),
  ('CN1CCc2c(OCc3ccc(F)cc3)cccc2C1=O', 1.57),
  ('N#Cc1c(-c2ccc([N+](=O)[O-])cc2)nc2n(c1=O)CCS2', 1.17),
  ('COc1ccccc1NC(=O)c1cc(=O)[nH]c2ccccc12', 1.47),
  ('O=C(OCC(=O)N1CCCc2ccccc21)c1cc(Cl)ccc1O', 0.53),
  ('CNc1nc(N)c([N+](=O)[O-])c(NC2CCCCC2)n1', 0.23),
  ('Cc1ccc(CNC(=O)CCCc2c[nH]c3ccccc23)cc1', 1.25),
  ('Cc1cnc(NC(=O)c2ccc3ncsc3c2)s1', 0.54),
  ('CCN(CC)c1nc(-c2ccccc2)nc2ccccc12.Cl', -0.30),
  ('COc1cc2c(cc1OC)CN(C(=O)c1ccc3[nH]c(C)c(C)c3c1)CC2', 0.84),
  ('CCN(CC(=O)N1CCCC1)S(=O)(=O)c1cc(C)ccc1OC', 1.69),
  ('CCc1ccnc(NC(=O)NS(=O)(=O)c2ccc(C)cc2)c1', 1.68),
  ('CCC(C)c1ccc(NC(=S)N2CCN(c3ccccn3)CC2)cc1 (centres undefined)', 0.41),
  ('CC(NC(=O)Nc1ccc(F)cc1)c1ccc2c(c1)OCO2 (centres undefined)', 0.53),
  ('CN(C)C(=O)c1ccc(NC(=O)c2sccc2-c2ccccc2)cc1', 1.69),
  ('Cn1c(-c2ccccc2[N+](=O)[O-])[n+](C)c2ccccc21.[Cl-]', 1.63),
  ('CN=C1S/C(=C\c2ccc(SC)cc2)C(=O)N1C', 0.15),
  ('CC(C)c1ccc(NC(=O)CCC(=O)NCc2ccco2)cc1', 0.71);

###

- experimental.setup: buffer; pH 7.4; 200.0 µM
reported.metric: solubility kinetic

INSERT INTO results (compound, reported_metric, result) VALUES
  ('CN(C)CCNC(=O)COc1cccc2c1OC(C)(C)C2', 'solubility kinetic', '> 43.9 µg/mL'),
  ('CC1(CCc2ccccc2)NC(=O)N(CC(=O)Nc2ccc(OC(F)F)cc2)C1=O (stereo unspecified)', 'solubility kinetic', '11.4 µg/mL'),
  ('CCOC(=O)C1=C(c2ccccc2)NC(=S)NC1c1ccc(Cl)cc1 (stereo unspecified)', 'solubility kinetic', '5.3 µg/mL'),
  ('CC(=O)c1cccc(NC(=O)CN(C)S(=O)(=O)c2ccccc2)c1', 'solubility kinetic', '> 52 µg/mL'),
  ('Cc1ccc(-c2csc(NS(=O)(=O)c3cccc(F)c3)n2)o1', 'solubility kinetic', '> 50.8 µg/mL'),
  ('CN(C)CCCNC(=O)c1cc(C(=O)c2ccccc2F)c[nH]1', 'solubility kinetic', '> 47.6 µg/mL'),
  ('COc1cccc(C(=O)Nc2ccccc2C(=O)NC2CC2)c1', 'solubility kinetic', '11.9 µg/mL'),
  ('Cc1c(C(=O)n2cnc3ccccc32)cccc1[N+](=O)[O-]', 'solubility kinetic', '39.8 µg/mL'),
  ('O=C(O)C1CCCN1S(=O)(=O)c1ccc(Cl)cc1 (stereo unspecified)', 'solubility kinetic', '> 43.5 µg/mL'),
  ('O=S(=O)(c1ccccc1)c1ccc(N2CCCCCC2)cc1', 'solubility kinetic', '< 0.7 µg/mL'),
  ('CCSc1ccccc1C(=O)NCc1cccnc1', 'solubility kinetic', '> 40.9 µg/mL');

###

- experimental.setup: buffer; pH 7.4; 200.0 µM
reported.metric: solubility kinetic (µg/mL)

INSERT INTO measurements (compound, readout_qualifier, quantitative_readout) VALUES
  ('O=C(NCC(O)c1ccc([N+](=O)[O-])cc1)Nc1ccccc1 (configuration not stated)', '=', 42),
  ('O=C(C1CCC1)N1CCN(c2cccc(C(F)(F)F)c2)CC1', '=', 38.8),
  ('O=C(Cc1ccccc1F)N1CCN(CC(=O)N2CCCC2)CC1', '>', 50),
  ('COC(=O)c1sccc1NC(=S)N1CCC(C(N)=O)CC1', '=', 42.5),
  ('Clc1cc2nc[nH]c2cc1Cl', '>', 28.1),
  ('CCNC(=S)Nc1cccc(NC(=O)c2ccccc2O)c1', '=', 42),
  ('O=S(=O)(Nc1ccc2ccccc2n1)c1ccccc1Cl', '=', 3.3),
  ('Cn1cnc2c(cnn2-c2ccccc2)c1=O', '>', 33.9),
  ('Cc1ccc(CS(=O)(=O)c2nc3c(c(N(C)C)n2)CCCC3)cc1', '=', 46),
  ('O=[N+]([O-])c1ccc(C2=CSC3=NCCN23)cc1', '=', 31.2),
  ('O=c1c2ccccc2nc2n1CCCN2', '>', 30.2),
  ('Nc1nnc(SCC(=O)NC2CCCCCCC2)s1', '>', 45.1);

###

- experimental.setup: buffer; pH 7.4; 200.0 µM
solubility kinetic of 40 µg/mL or higher: Fulfilled. Under 40 µg/mL: Not fulfilled.

INSERT INTO results (molecule, answer_label) VALUES
  ('Cc1ccc(C)c(SCC(=O)NC2CCS(=O)(=O)C2)c1 (centres undefined)', 'Fulfilled'),
  ('Cc1ccc(C(C)NC(=S)NC2CCCCC2)cc1C (centres undefined)', 'Not fulfilled'),
  ('O=C(Nc1ccc(Cl)cc1F)C1CC(=O)N(Cc2ccco2)C1 (centres undefined)', 'Fulfilled'),
  ('COc1ccc(CNC(=O)CN2C(=O)NC3(CCCCCCC3)C2=O)cc1', 'Not fulfilled'),
  ('Cc1ccc2c(c1)N(C(C)C(=O)NCc1ccccn1)C(=O)CO2 (centres undefined)', 'Fulfilled'),
  ('CCCNS(=O)(=O)c1ccc(OCC(=O)NCC2CCCO2)cc1 (centres undefined)', 'Fulfilled'),
  ('Cc1ccc(CN2CCN(C(=O)c3cccc4ccccc34)CC2)cc1.O=C(O)C(=O)O', 'Fulfilled'),
  ('O=C(COC(=O)C1CC2CCCC(C1)C2=O)Nc1ccc(F)c(Cl)c1 (centres undefined)', 'Fulfilled'),
  ('CCOc1ccc2c(c1)c(C(C)=O)c(C)n2Cc1ccco1', 'Not fulfilled'),
  ('COc1ccc(-n2c(C)c(C)c3c(NCCCN(C)C)ncnc32)cc1', 'Fulfilled'),
  ('O=C1CN(C(=O)COC(=O)c2ccccc2O)c2ccccc2N1', 'Not fulfilled'),
  ('O=C(NC(=S)Nc1cccc([N+](=O)[O-])c1)C1CCCCC1', 'Not fulfilled'),
  ('O=C(Nc1cccc(Cl)c1)Nc1ccon1', 'Not fulfilled'),
  ('O=C(NCc1cccnc1)c1ccc(NS(=O)(=O)c2cccc([N+](=O)[O-])c2)cc1', 'Fulfilled'),
  ('Cc1noc2ncnc(N3CCCCC3)c12', 'Not fulfilled'),
  ('OC(CN1CCN(c2ccccc2F)CC1)c1ccc(F)cc1 (centres undefined)', 'Fulfilled'),
  ('CC(=O)c1ccc(NC(=O)NC2CCCc3ccccc32)cc1 (centres undefined)', 'Not fulfilled'),
  ('c1coc(-c2ccnc(-n3cccc3)n2)c1', 'Not fulfilled'),
  ('Cc1nc2ccc(NC(=S)N3CCCC3)cc2nc1C', 'Fulfilled'),
  ('CCn1c(=O)c(C(=O)NCc2ccc(F)cc2)c(O)c2ccccc21', 'Not fulfilled'),
  ('COc1cc(C)c(CN2CC=C(c3ccc(F)cc3)CC2)cc1C', 'Not fulfilled'),
  ('CNC(=O)c1cc2cc(Cc3ccccc3Cl)ccc2oc1=O', 'Not fulfilled'),
  ('O=C(COc1ccccc1C(=O)O)Nc1cccc2ccccc12', 'Fulfilled'),
  ('CS(=O)(=O)N(CC(=O)NC1CCCC1)C1CCCCC1', 'Fulfilled'),
  ('Cc1ccc(SCCc2cc[n+](CC(=O)c3ccccc3)cc2)cc1', 'Fulfilled'),
  ('O=C(O)c1cccc(S(=O)(=O)Nc2ccc(Cc3ccncc3)cc2)c1', 'Fulfilled'),
  ('CCC1C(=O)Nc2ccccc2N1C(=O)COc1ccccc1 (centres undefined)', 'Fulfilled'),
  ('CC(NC(=O)c1cc(F)c(F)cc1Cl)C1CC2CCC1C2 (centres undefined)', 'Not fulfilled'),
  ('CCc1oc(C(=O)OC)cc1CSC(=N)N.Cl', 'Fulfilled'),
  ('Nc1ccc(-c2c3ccccc3nc3ccccc23)cc1', 'Not fulfilled'),
  ('CC(=O)NCCc1ccc(C(=O)Cn2cnc3ccccc3c2=O)cc1', 'Fulfilled'),
  ('O=C(NCCCN1CCCC1=O)c1ccccc1OCc1ccc(Cl)cc1Cl', 'Fulfilled'),
  ('Cc1cccc(NP(=O)(Oc2ccccc2)Oc2ccccc2)c1C', 'Not fulfilled'),
  ('CCOC(=O)Cc1cc(=O)[nH]c(/N=C(\N)Nc2ccc(OC)cc2)n1', 'Not fulfilled'),
  ('O=C(c1ccc(Br)cc1)N1CCN(c2ncccn2)CC1', 'Fulfilled'),
  ('CC(C)NC(=O)c1c(O)c2cccc3c2n(c1=O)CCC3', 'Not fulfilled'),
  ('Nc1ccc(Cl)c(S(=O)(=O)Nc2ccccc2Cl)c1', 'Fulfilled'),
  ('CN1CC(C(=O)c2ccc(Cl)cc2)C(c2ccccc2F)C1 (centres undefined)', 'Fulfilled'),
  ('COc1cc(CNCCO)ccc1OCCc1ccccc1', 'Fulfilled'),
  ('O=C(CO/N=C/c1ccc(OC(F)F)cc1)NC1CCCCC1', 'Not fulfilled'),
  ('COc1ccccc1C(=O)Nc1sc2c(c1C#N)CCC2', 'Not fulfilled'),
  ('CCCCn1c(N)c(N(C)C(=O)C2CCCC2)c(=O)[nH]c1=O', 'Fulfilled'),
  ('CN1CCN(c2nc(-c3ccccc3)ncc2S(C)(=O)=O)CC1', 'Fulfilled'),
  ('COc1cccc2sc(/N=C/N(C)C)nc12', 'Not fulfilled'),
  ('Cc1ccc(CNC(=O)C2CCC(=O)N2C(C)C)cc1 (centres undefined)', 'Fulfilled');
